ASSAYED TARGET: Bombyx mori Gr9 (BmGr9) (Bombyx mori, UniProt B3GTD7)
Construct: N-terminally TwinStrep-tagged BmGr9, homotetramer; residues 232–269 and the N and C termini (15 and 5 residues) disordered
Sequence (B3GTD7 1-449): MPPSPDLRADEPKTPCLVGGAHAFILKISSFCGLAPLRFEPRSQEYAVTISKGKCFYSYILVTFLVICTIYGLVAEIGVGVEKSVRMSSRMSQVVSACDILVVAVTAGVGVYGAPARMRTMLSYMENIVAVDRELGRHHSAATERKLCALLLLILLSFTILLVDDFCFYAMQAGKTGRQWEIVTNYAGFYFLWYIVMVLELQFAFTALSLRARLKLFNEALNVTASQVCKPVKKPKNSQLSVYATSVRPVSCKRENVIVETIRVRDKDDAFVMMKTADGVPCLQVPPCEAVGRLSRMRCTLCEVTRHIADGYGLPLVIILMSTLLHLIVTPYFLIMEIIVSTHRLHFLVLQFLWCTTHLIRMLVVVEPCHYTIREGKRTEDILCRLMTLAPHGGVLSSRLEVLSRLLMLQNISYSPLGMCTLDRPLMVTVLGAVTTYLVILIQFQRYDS
MEASUREMENT DESCRIPTION: cryo-EM of protein purified with […] D-fructose ([…] Å); EC50 by two-electrode voltage clamp in Xenopus oocytes
Format: cell-based
REPORTED ENDPOINT: EC50 (mM)
Write down the numeric answer in mM and omit the unit.

stdin: Value lookup for EC50; key = OCC1(O)OC[C@@H](O)[C@@H](O)[C@@H]1O (stereo partly shown)
stdout: 22
